System: HCT-116 colon
Experiment: NCI tumour cell line growth inhibition, 48 h
Measurement name: TGI

{"Compound": "COc1ccc(/C=C2\\CCC(CCN(C)C)(C3=CCCC3)C2=O)cc1Br (stereo not given)", "TGI": "17.1 µM"}
{"Compound": "CO/N=C\\c1cc(O)c(O)c(/C=N/OC)c1", "TGI": "> 100 µM"}
{"Compound": "COC(=O)C(COC(=O)/C=C/c1ccc(OC(C)=O)c(OC(C)=O)c1)NC(=O)/C=C/c1ccc(OC(C)=O)c(OC(C)=O)c1 (stereo not given)", "TGI": "42.6 µM"}
{"Compound": "CCS(=O)(=O)CCn1c(=O)c2c(ncn2C)n(C)c1=O", "TGI": "> 100 µM"}
{"Compound": "O=C(NNC(=S)NCc1ccccc1)c1csc(NC(=S)NC2CCCCC2)n1", "TGI": "72.3 µM"}
{"Compound": "C=CCN1/C(=C2\\SC(=S)N(c3ccc(C)cc3)C2=O)Sc2c1nc[nH]c2=O", "TGI": "> 100 µM"}
{"Compound": "Cn1c(N)nc(=O)c2c1N(C1OC(CO)C(O)C1O)CN2Cc1ccccc1 (stereo not given)", "TGI": "> 100 µM"}
{"Compound": "C=C1C(OC(=O)/C=C/c2ccccc2)CC(OC(C)=O)C2(C)C1CC1CC(OC(C)=O)C(C)=C(C(OC(C)=O)C2OC(C)=O)C1(C)C (stereo not given)", "TGI": "> 100 µM"}

I would be grateful if you could provide TGI for each of the following entries.
1. CN(C(=O)C1=CCC2(CC1)OCCO2)c1ccccc1I
2. OCCNc1nc(Nc2ccc(Cl)c(Cl)c2)nc2ccccc12

Result:
1: > 100 µM; 2: 14.6 µM
